Listing of recorded zone of inhibition at 5000 µg/mL by entry.
test system: Bacillus subtilis; experiment: Antibacterial activity against Bacillus subtilis at 5 mg/ml after 24 hrs by agar-diffusion technique; format: functional; details: read-out: DIZ
observation.type: zone of inhibition at 5000 µg/mL (mm)

| compound | observation.type | result |
| --- | --- | --- |
| CCOC(=O)c1cc2ccccc2[nH]1 | zone of inhibition at 5000 µg/mL | 5.6 |
| NC(=S)NNC(=O)c1cc2ccccc2[nH]1 | zone of inhibition at 5000 µg/mL | 12 |
| CC(=O)OC[C@H]1O[C@@H](Sc2n[nH]c(-c3cc4ccccc4[nH]3)n2)[C@H](OC(C)=O)[C@@H](OC(C)=O)[C@H]1OC(C)=O | zone of inhibition at 5000 µg/mL | 12 |
| O=C(N[C@H](CO)[C@H](O)c1ccc([N+](=O)[O-])cc1)C(Cl)Cl [CHLORAMPHENICOL] | zone of inhibition at 5000 µg/mL | 12 |
| S=c1nc(-c2cc3ccccc3[nH]2)[nH][nH]1 | zone of inhibition at 5000 µg/mL | 12 |
| CCOC(=O)/C(C)=N/Nc1ccccc1 | zone of inhibition at 5000 µg/mL | 12 |
| CC(=O)OC[C@H]1O[C@@H](n2nc(-c3cc4ccccc4[nH]3)nc2S[C@@H]2O[C@H](COC(C)=O)[C@@H](OC(C)=O)[C@H](OC(C)=O)[C@H]2OC(C)=O)[C@H](OC(C)=O)[C@@H](OC(C)=O)[C@@H]1OC(C)=O | zone of inhibition at 5000 µg/mL | 6.5 |
| CC(=O)N[C@@H]1[C@@H](OC(C)=O)[C@H](OC(C)=O)[C@@H](COC(C)=O)O[C@H]1Sc1n[nH]c(-c2cc3ccccc3[nH]2)n1 | zone of inhibition at 5000 µg/mL | 5.1 |
| NNC(=O)c1cc2ccccc2[nH]1 | zone of inhibition at 5000 µg/mL | 12 |
| CC(=O)OC[C@H]1O[C@@H](Sc2n[nH]c(-c3cc4ccccc4[nH]3)n2)[C@H](OC(C)=O)[C@@H](OC(C)=O)[C@@H]1OC(C)=O | zone of inhibition at 5000 µg/mL | 12 |
